Data provenance is PubChem BioAssay (NCATS).

- Test system: HACAT
- ASSAY_NAME: qHTS assay to identify novel small-molecules to repurpose for Merkel cell carcinoma treatment (AID 1296009); also: nearly all actives have a fitted effect of over 60% in size
- CONDITION_INFO: MCC and control cell lines, CellTiter-Glo viability, 72 h; at 44.8 µM (top of the series) unless noted
Inconclusive results are not listed. Calls of active or inactive are those of the source. Calls follow the shape of the dose curve; as a rule, active = well fitted inhibition curve with a large enough effect; inconclusive = small, poorly fitted or top-dose-only effect; inactive = flat fitted curve, though single readings scatter.

| COMPOUND | outcome |
| --- | --- |
| C=C(C(=O)O)[C@@H]1CC=C2CCC[C@H](C)[C@@]2(C)C1 | inactive |
| C[C@]12C=CC(=O)C=C1CC[C@@H]1[C@@H]2[C@@H](O)C[C@@]2(C)[C@H]1CC[C@]2(O)C(=O)COC(=O)CCC(=O)O | inactive |
| OC[C@H]1O[C@@H](OC(CCCCc2ccc(O)cc2)CCc2ccc(O)cc2)[C@H](O[C@@H]2OC[C@](O)(CO)[C@H]2O)[C@@H](O)[C@@H]1O (stereo not given in full) | inactive [at 17.4 µM] |
| C=C1CCC2C(C)(C)C(O)CCC2(C)C1CCC(C)CCOC(=O)CCC(=O)O (stereo not given) | inactive [at 17.4 µM] |

====

- System: CP192
- ASSAY_NAME: qHTS profiling for inhibitors of Plasmodium falciparum proliferation (AID 504749); also: nearly all actives have a fitted effect of over 60% in size; also: potency is read from the fitted curve at half-maximal effect
- CONDITION_INFO: P. falciparum in erythrocytes, SYBR Green DNA, 72 h; series mostly up to 28.7 µM
Results filed as inconclusive are left out. The source made the active and inactive calls. Calls come from the whole dose curve; as a rule, active = well fitted inhibition curve with a large enough effect; inconclusive = small, poorly fitted or top-dose-only effect; inactive = flat fitted curve, though single readings scatter. Peptide text beside a SMILES is read from it.

| COMPOUND | SYSTEM | Potency |
| --- | --- | --- |
| CC(=O)Oc1c(C)cc(OCC(O)CNC(C)C)c(C)c1C (stereo not drawn) | CP192 | inactive |
| C[C@@H]1CCC2[C@@H](C)[C@@H](O)O[C@@H]3O[C@@]4(C)CC[C@@H]1[C@@]23OO4 (stereo partly drawn) | CP192 | 4.3 nM (active) |
| CC(=O)N[C@@H](CC(=O)O)C(=O)N[C@@H](CCC(=O)O)C(=O)O (Ac-Asp-Glu-OH) | CP192 | inactive |

====

Listed here: items and their measured max response.
- System: KB-3-1
- ASSAY_NAME: Cytotoxic Profiling of Annotated Libraries Using Quantitative High-Throughput Screening (AID 1296008); also: % is scaled to controls: 0 for no effect and ±100 for the full control effect; nearly all actives have a fitted effect of over 60% in size
- CONDITION_INFO: Five cell lines viability, CellTiter-Glo ATP luminescence, 48-72 h; stronger effect = lower value
Results filed as inconclusive are left out. The source made the active and inactive calls. Calls come from the whole dose curve; as a rule, active = well fitted inhibition curve with a large enough effect; inconclusive = small, poorly fitted or top-dose-only effect; inactive = flat fitted curve, though single readings scatter.

| COMPOUND | max response |
| --- | --- |
| COC(=O)C1=CO[C@@H](O[C@@H]2O[C@H](COC(=O)/C=C/c3cc(OC)c(O)c(OC)c3)[C@@H](O)[C@H](O)[C@H]2O)[C@@H]2C(CO)=CC[C@H]12 | 1.62% (inactive) |
| CC12CC34C=CC(=O)C(C)(CCC(=O)O)C3C(CC1C4)O2 (stereo not drawn) | 5.48% (inactive) |
| C=C1[C@@H]2CC[C@@]3(C)[C@H](c4ccoc4)OC(=O)C[C@]13O[C@H]1CC(=O)C(C)(C)[C@H](CC(=O)OC)[C@]12C | -1.94% (inactive) |
| CCNC(=O)CCC/C=C\C[C@@H]1[C@@H](/C=C/C(O)CCc2ccccc2)[C@@H](O)C[C@@H]1O (stereo partly drawn) | 9.15% (inactive) |
| CC1(C(=O)O)CCCC2(C)C1CCC13CC(CCC21)C1(CO)OC31 (stereo not drawn) | 2.68% (inactive) |

Which measured max response value corresponds to `O=C(O)c1cc(=O)c2c3nc4ccccc4oc-3cc(=O)c2[nH]1` ?
-4.67% (inactive)

Which measured max response value corresponds to `COC(=O)c1cc(CN2CCN(C(=N)N)CC2)cc(C(=O)N2CCN(C(=O)c3ccc(C(=N)N)cc3)CC2)c1` ?
2.44% (inactive)

Which measured max response value corresponds to `COc1cc2c(cc1OC)CN(C(=O)[C@@H](NCc1ccncc1)C(C)(C)C)CC2` ?
5.18% (inactive)
